Reference for the values: paper PMC9032695

run.description: Hydrodynamic size and zeta potential of self-assembled nanoparticles (DLS)
Format: physicochemical
condition: DLS, self-assembled in aqueous solution
Each record here notes measured PDI.
// no unit string in output, number only

>>> recorded_result("CCCCCCCNCCCNC/C=C\\CNCCCNCCCCCCC")
0.17
>>> recorded_result("CCCNCCCNC/C=C\\CNCCCNCCC")
0.21

Determine from records and report PDI for CCCCCCCCNCCCNC/C=C\CNCCCNCCCCCCCC 0.13

Determine from records and report PDI for CCCCCCCCCNCCCNC/C=C\CNCCCNCCCCCCCCC 0.17

Determine from records and report PDI for CCCCNCCCNC/C=C\CNCCCNCCCC 0.064

Determine from records and report PDI for CCCCCNCCCNC/C=C\CNCCCNCCCCC 0.15

Determine from records and report PDI for CCCCCCNCCCNC/C=C\CNCCCNCCCCCC 0.23

---

run.description: Hydrodynamic size and zeta potential of self-assembled nanoparticles (DLS)
Assay type: physicochemical
condition: self-assembled in aqueous solution
Procedure: To achieve self-assembly, each sample was dispersed in aqueous solution under sonication (Branson Ultrasonic, working frequency […] at room temperature) for 30 min. Thereafter, the sample was allowed to undergo self-assembly by keeping it undisturbed for another 30 min. The size and surface zeta potential of the self-assembled nanoparticles were analyzed using a Brookhaven NanoBrook (Holtsville, NY, USA) Omni particle size and zeta potential analyzer, respectively.
experimental.readout: Zeta Potential (mV)
Give the value in mV but do not write mV after it.

Check out these entries, answers already filled in.
>>> recorded_result("CCCCNCCCNC/C=C\\CNCCCNCCCC [HPG-3]")
24
>>> recorded_result("CCCNCCCNC/C=C\\CNCCCNCCC [HPG-2]")
27
>>> recorded_result("CCCCCCNCCCNC/C=C\\CNCCCNCCCCCC [HPG-5]")
16

Determine from records and report Zeta Potential for CCCCCCCCNCCCNC/C=C\CNCCCNCCCCCCCC [HPG-7] 11

Determine from records and report Zeta Potential for CCCCCCCNCCCNC/C=C\CNCCCNCCCCCCC [HPG-6] 22

Determine from records and report Zeta Potential for CCCCCNCCCNC/C=C\CNCCCNCCCCC [HPG-4] 15

Determine from records and report Zeta Potential for CCCCCCCCCNCCCNC/C=C\CNCCCNCCCCCCCCC [HPG-8] 17

---

Each record here notes measured Particle Size.
run.description: Hydrodynamic size and zeta potential of self-assembled nanoparticles (DLS)
Format: physicochemical
condition: hydrodynamic size by DLS, self-assembled in aqueous solution
Give the value in nm but do not write nm after it.

Check out these entries, answers already filled in.
>>> recorded_result("CCCNCCCNC/C=C\\CNCCCNCCC [HPG-2]")
173
>>> recorded_result("CCCCCCNCCCNC/C=C\\CNCCCNCCCCCC [HPG-5]")
158

Determine from records and report Particle Size for CCCCCCCCNCCCNC/C=C\CNCCCNCCCCCCCC [HPG-7] 318

Determine from records and report Particle Size for CCCCNCCCNC/C=C\CNCCCNCCCC [HPG-3] 186

---

experimental.system: purified recombinant human SMOX protein (Homo sapiens, UniProt Q9NWM0)
Sequence (Q9NWM0 whole entry): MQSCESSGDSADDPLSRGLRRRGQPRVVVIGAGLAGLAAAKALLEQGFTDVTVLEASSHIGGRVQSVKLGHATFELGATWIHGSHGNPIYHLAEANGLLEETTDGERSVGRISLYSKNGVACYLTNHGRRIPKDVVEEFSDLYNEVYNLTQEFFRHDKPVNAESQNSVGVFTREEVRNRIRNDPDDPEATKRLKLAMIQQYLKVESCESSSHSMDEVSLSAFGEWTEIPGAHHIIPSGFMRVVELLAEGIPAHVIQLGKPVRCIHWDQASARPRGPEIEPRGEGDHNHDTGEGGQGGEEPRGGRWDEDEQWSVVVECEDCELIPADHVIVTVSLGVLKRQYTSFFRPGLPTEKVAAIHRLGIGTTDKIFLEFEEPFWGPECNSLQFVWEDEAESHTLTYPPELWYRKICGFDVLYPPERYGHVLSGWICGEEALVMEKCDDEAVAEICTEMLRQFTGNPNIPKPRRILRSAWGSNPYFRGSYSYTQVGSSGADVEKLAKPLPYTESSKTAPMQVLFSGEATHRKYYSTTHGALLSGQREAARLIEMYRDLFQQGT
run.description: SMOX activity assay (luminol-based chemiluminescence)
Format: biochemical
condition: purified recombinant human SMOX, pH 8.0, 37 °C
experimental.readout: pIC50
To interpret pIC50, take it as minus log10 of a concentration measured in moles per litre.

>>> recorded_result("CCCCCCCNCCCNC/C=C\\CNCCCNCCCCCCC")
4.52

Give reported pIC50 for CCCCCCNCCCNC/C=C\CNCCCNCCCCCC (purified recombinant human SMOX protein (Homo sapiens, UniProt Q9NWM0)) 4.05
